protocol-description: Quantitative High-Throughput drug screen in 47 multiple myeloma cell lines against the NCATS MIPE library collection: KHM11_PLB cell viability assay (AID 1918962); note: potency is the fitted concentration of half-maximal effect; nearly all actives have a fitted effect of over 35% in size
details: KHM11 myeloma cell viability, CellTiter-Glo ATP luminescence, 48 h; series mostly up to 45.8 µM
Description: PI: Beverly A. Mock Ph.D. Laboratory of Cancer Biology and Genetics, Center for Cancer Research, National Cancer Institute, National Institute of Health, Bethesda, Maryland […] 5; Detector; 425V; Luminescence; Viewlux PerkinElmer. […] 1. […] Briefly, the corresponding myeloma cell lines were screened in 1,536-well plates with 500 cells, 5-uL per well for inhibition of cell viability (assessed by measuring ATP levels with CellTiterGlo). […]
Records with an inconclusive call do not appear. The source made the active and inactive calls. Calls come from the whole dose curve; as a rule, active = well fitted cell-killing curve with a large enough effect; inconclusive = small, poorly fitted or top-dose-only effect, or effect the other way; inactive = no such curve, though single readings can be large or run the other way.
measured-quantity: Potency

>>> result("COc1cccc2c1C(=O)c1c(O)c3c(c(O)c1C2=O)C[C@@](O)(C(=O)CO)C[C@@H]3O[C@H]1C[C@H](N)[C@H](OC2CCCCO2)[C@H](C)O1 (some centres undefined)")
"2.09 µM (active)"
>>> result("CN[C@H]1[C@@H](O)[C@@H]2O[C@@H]3O[C@H](C)CC(=O)[C@]3(O)O[C@@H]2[C@@H](NC)[C@H]1O")
"8.33 µM (active)"
>>> result("FC(F)(F)c1ccc(Nc2nc3ccc(Oc4ccnc(-c5ncc(C(F)(F)F)[nH]5)c4)cc3[nH]2)cc1")
"20.9 µM (active)"
>>> result("O=c1c(O)c(-c2ccc(O)c(O)c2)oc2cc(O)ccc12")
"13.2 µM (active)"
